- Tested on: NCI-H460
- Experiment Summary: NCI tumour cell line growth inhibition, 48 h
Active and inactive are the calls of the source. No stated cut-off is given here; in the data, active = GI50 up to about 1.1 µM and inactive = higher.

| Compound | Tested System | GI50 |
| --- | --- | --- |
| COc1cc(-c2c(C#N)c(N)c(C#N)c3c2COc2ccccc2-3)cc(OC)c1OC | NCI-H460 | > 77.3 µM (inactive) |
| CCCCN(CCCC)CC(O)c1cc(-c2ccc(Cl)c(Cl)c2)nc2c(Cl)cc(Cl)cc12 (centres undefined) | NCI-H460 | > 100 µM (inactive) |
| O=Cc1cc2c(s1)C(=O)c1sccc1C2=O | NCI-H460 | 1.32 µM (inactive) |
| CC(O)c1ccc(C(O)/C(=N\NC(=O)c2ccncc2)c2nc3ccc([N+](=O)[O-])cc3nc2O)cc1 (centres undefined) | NCI-H460 | > 100 µM (inactive) |
| Nc1ccc(C(=O)NN2C(=O)C(Cl)C2c2ccccc2)cc1 (centres undefined) | NCI-H460 | > 100 µM (inactive) |
| CN(C)/N=C/c1cn(C)c(=O)n(C)c1=O | NCI-H460 | > 100 µM (inactive) |
| O=C(CC(Cl)(Cl)C(Cl)(Cl)Cl)c1ccccc1 | NCI-H460 | 12 µM (inactive) |
| C/C=C(/C)C(=O)O[C@H]1C[C@@H]2[C@@H](O)c3occ(C)c3C[C@]2(C)[C@@H](C)C1 | NCI-H460 | 22.4 µM (inactive) |
| CN(C)CCCNc1cnc2cc3ccccc3cc2n1 | NCI-H460 | 33.3 µM (inactive) |
| Cc1c(F)c(NC(=O)CN(C)C)c2c(=O)cc(-c3ccc(NC(=O)CN(C)C)c(F)c3)oc2c1F | NCI-H460 | 9.35 µM (inactive) |
| O=c1sc2c(s1)-c1sc(=O)sc1SS2 | NCI-H460 | > 100 µM (inactive) |
| CC(C)C1CN(C(=O)OCc2ccccc2)C2N1C(=O)C2(C)OCc1ccccc1 (centres undefined) | NCI-H460 | 21.6 µM (inactive) |
| COC(=O)C1=C(c2cc(OC)c(OC)c(OC)c2)OC(c2ccc3c(c2)OCO3)C1 (centres undefined) | NCI-H460 | 31.7 µM (inactive) |
| C=C(C)[C@@H]1CCC2=C[C@H](OC2=O)[C@@]2(C)C[C@@H]2C2=CC(C)=C(O2)[C@H]1O | NCI-H460 | 54.3 µM (inactive) |
| Nc1cccc(OCC2CCCN3CCCCC23)c1 (centres undefined) | NCI-H460 | 19 µM (inactive) |
| COc1cc(O)c2c(c1)C(=O)c1cc3c(c(O)c1C2=O)C(OC1OC(C)C(OC)C(O)C1OC)C(OC)C(C)(O)C3=O (centres undefined) | NCI-H460 | 2.72 µM (inactive) |
| O=C1C=CC2(O[C@@H](Cc3ccccc3)[C@H](Cc3ccccc3)O2)C(SC(=O)c2ccccc2)C1 (some centres undefined) | NCI-H460 | 2.59 µM (inactive) |
| C=CC(C)(C)c1cc([C@@H]2COc3cc(O)ccc3C2=O)c(O)c(OC)c1OC | NCI-H460 | 17.4 µM (inactive) |
| CC(=O)O[C@@H](c1nccn1Cc1ccccc1)[C@H]1OC(C)(C)O[C@@H]1[C@H]1COC(C)(C)O1 | NCI-H460 | > 100 µM (inactive) |
| COC(=O)c1ccc(NCc2c(O)ccc(O)c2Br)cc1Cl | NCI-H460 | 18.7 µM (inactive) |
| O=c1[nH]c(=O)c2ncn(-c3ccc([N+](=O)[O-])cn3)c2[nH]1 | NCI-H460 | > 100 µM (inactive) |
| OCCCc1cnco1 | NCI-H460 | > 100 µM (inactive) |
| COc1cc(Cc2nccc3cc(OC)c(OC)cc23)c(/N=N/N(C)C)cc1OC | NCI-H460 | 7.23 µM (inactive) |
| O=C(Cn1c2ccc(Br)cc2c2nc3ccccc3nc21)NNC(=S)NC1CCCCC1 | NCI-H460 | 12.4 µM (inactive) |
| CC(C)(C)OC(=O)N(O)[C@@H]1C=C[C@H](n2cnc3c(N)ncnc32)C1 | NCI-H460 | > 100 µM (inactive) |
| C=C1CN(C(=O)c2cc3cc(OC)c(OC)c(OC)c3[nH]2)c2cc([N+](=O)[O-])ccc21 | NCI-H460 | > 100 µM (inactive) |
| CCOc1ccccc1NC(=O)C(=O)CC(=O)c1sc(Nc2nnc(-c3ccc(Cl)c(Cl)c3)o2)nc1C | NCI-H460 | 51.8 µM (inactive) |
| c1ccc(C2(c3ccccc3)SSC3(S2)C2CC4CC(C2)CC3C4)cc1 (centres undefined) | NCI-H460 | > 100 µM (inactive) |
| CC1(C)N/C(=C\[N+](=O)[O-])C(C)(C)N1O | NCI-H460 | > 10 µM (inactive) |
| CS/C(=N/C(=O)c1ccccc1)SCCS/C(=N\C(=O)c1ccccc1)SC | NCI-H460 | > 100 µM (inactive) |
| O=C1/C(=C/c2ccc(OC(=O)c3ccccc3)cc2)CCC/C1=C\c1ccc(OC(=O)c2ccccc2)cc1 | NCI-H460 | > 100 µM (inactive) |
| Cn1c(=O)c2sc3c4sc5c(=O)n(C)c6ccccc6c5c4sc3c2c2ccccc21 | NCI-H460 | > 100 µM (inactive) |
| Cn1/c(=N\c2ccccc2[N+](=O)[O-])sc2ccccc21 | NCI-H460 | 50.2 µM (inactive) |
| COC(=O)C(C)(Cc1ccc2c(c1)nnn2C(C)=O)NC(C)=O (centres undefined) | NCI-H460 | > 100 µM (inactive) |
| CC(=O)O[C@H]1[C@@H](OC(C)=O)C(C)(C)/C=C/[C@H](C)C(=O)[C@@]2(OC(C)=O)C[C@@](C)(OC(C)=O)[C@H](OC(C)=O)[C@@H]2[C@H]2OC(=O)CC[C@@]2(OC(=O)c2ccccc2)[C@@H]1OCC(C)C | NCI-H460 | 4.1 µM (inactive) |
| C=C1C(=O)OC2/C=C(\C)CC/C=C(/C)CC(OC(=O)/C(=C/CO)CO)C12 (centres undefined) | NCI-H460 | 64.3 µM (inactive) |
| C[C@@]1(OC(=O)c2cc([N+](=O)[O-])cc([N+](=O)[O-])c2)C[C@@H]2CCCC[C@@H]21 | NCI-H460 | > 100 µM (inactive) |
| [C-]#[N+]C(=C\c1ccc(O)cc1)/C(=C/c1ccc(O)cc1)[N+]#[C-] | NCI-H460 | 2.42 µM (inactive) |
| Oc1c(Cl)ccc2cccnc12 | NCI-H460 | 3.4 µM (inactive) |
